Target: human CA-XII (Homo sapiens, UniProt O43570)
Construct: purchased Creative BioMart CA12-261H
Sequence (O43570 25-354): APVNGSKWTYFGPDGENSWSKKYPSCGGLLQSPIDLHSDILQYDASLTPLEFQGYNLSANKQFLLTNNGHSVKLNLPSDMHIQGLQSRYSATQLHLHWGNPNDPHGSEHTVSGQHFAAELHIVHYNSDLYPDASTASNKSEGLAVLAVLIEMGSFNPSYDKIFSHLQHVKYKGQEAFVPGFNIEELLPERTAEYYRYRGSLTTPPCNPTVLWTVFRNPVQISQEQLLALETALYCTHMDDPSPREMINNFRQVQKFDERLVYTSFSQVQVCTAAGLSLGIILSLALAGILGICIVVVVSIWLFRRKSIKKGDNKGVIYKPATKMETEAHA
Assay: Surface Plasmon Resonance (SPR) binding kinetics to recombinant human CA-XII (Biacore 8K, single-cycle kinetics, 1:1 binding model)
Details: Chelated Metal: Lu-175, 25° C., pH 7.4, read-out: CAXII KD

- Molecule: "NS(=O)(=O)c1nnc(NC(=O)C23CC(c4cn(CCNC(=O)[C@@H]5CN(C(=O)CN6CCN(CC(=O)O)CCN(CC(=O)O)CCN(CC(=O)O)CC6)CCN5C(=O)C[C@H](NC(=O)C[C@H](NC(=O)c5ccc(CC6CC6)cc5)C(=O)O)C(=O)O)nn4)(C2)C3)s1.[Lu+3] [Compound 109.38]"
  Kd: "2.5 to 10 nM"
- Molecule: "NS(=O)(=O)c1nnc(NC(=O)C23CC(c4cn(CCNC(=O)[C@@H]5CN(C(=O)CN6CCN(CC(=O)O)CCN(CC(=O)O)CCN(CC(=O)O)CC6)CCN5C(=O)C[C@H](NC(=O)C[C@H](NC(=O)c5ccc(C6CC6)cn5)C(=O)O)C(=O)O)nn4)(C2)C3)s1.[Lu+3] [Compound 109.19]"
  Kd: "1 to 2.5 nM"
- Molecule: "NS(=O)(=O)c1nnc(NC(=O)C23CC(c4cn(CCNC(=O)[C@@H]5CN(C(=O)CN6CCN(CC(=O)O)CCN(CC(=O)O)CCN(CC(=O)O)CC6)CCN5C(=O)C[C@H](NC(=O)C[C@H](NC(=O)c5coc(C(F)(F)F)n5)C(=O)O)C(=O)O)nn4)(C2)C3)s1.[Lu+3] [Compound 109.17]"
  Kd: "> 10 nM"
- Molecule: "CC(CCCC(=O)N1CCC(C(=O)O)(C(=O)NCC(=O)N2CCN(C(=O)CN3CCN(CC(=O)O)CCN(CC(=O)O)CCN(CC(=O)O)CC3)C[C@@H]2C(=O)NCCn2cc(C34CC(C(=O)Nc5nnc(S(N)(=O)=O)s5)(C3)C4)nn2)CC1)(c1ccc(O)cc1)c1ccc(O)cc1.[Lu+3] [Compound 107.12]"
  Kd: "> 10 nM"
- Molecule: "NS(=O)(=O)c1nnc(NC(=O)C23CCC(c4cn(CCNC(=O)[C@@H]5CN(C(=O)CN6CCN(CC(=O)O)CCN(CC(=O)O)CCN(CC(=O)O)CC6)CCN5C(=O)CC[C@H](NC(=O)C[C@H](NC(=O)c5ccc(C6CC6)cc5)C(=O)O)C(=O)O)nn4)(CC2)CC3)s1.[Lu+3] [Compound 109.54]"
  Kd: "< 1 nM"
- Molecule: "NS(=O)(=O)c1nnc(NC(=O)C23CCC(c4cn(CCNC(=O)[C@@H]5CN(C(=O)CN6CCN(CC(=O)O)CCN(CC(=O)O)CCN(CC(=O)O)CC6)CCN5C(=O)CC[C@H](NC(=O)C[C@H](NC(=O)CCC(F)(F)F)C(=O)O)C(=O)O)nn4)(CC2)CC3)s1.[Lu+3] [Compound 109.53]"
  Kd: "< 1 nM"
- Molecule: "CC(CCOC(=O)N1CCC(C(N)=O)(C(=O)NCC(=O)N2CCN(C(=O)CN3CCN(CC(=O)O)CCN(CC(=O)O)CCN(CC(=O)O)CC3)C[C@H]2C(=O)NCCn2cc(C34CC(C(=O)Nc5nnc(S(N)(=O)=O)s5)(C3)C4)nn2)CC1)(c1ccc(O)cc1)c1ccc(O)cc1.[Lu+3] [Compound 107.57]"
  Kd: "> 10 nM"
